Provenance of the data: patent US11566007B2

experimental.target: KRAS Q61H (Homo sapiens (Human), UniProt P01116+P62937, Q61H)
Sequence (P01116-2 other isoform, or with tags, fused parts or gaps Q61H): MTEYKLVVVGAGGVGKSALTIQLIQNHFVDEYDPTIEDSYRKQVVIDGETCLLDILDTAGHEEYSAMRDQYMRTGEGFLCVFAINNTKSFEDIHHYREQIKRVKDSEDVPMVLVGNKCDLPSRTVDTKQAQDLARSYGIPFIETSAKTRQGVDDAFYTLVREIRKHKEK
Sequence (P62937 whole entry): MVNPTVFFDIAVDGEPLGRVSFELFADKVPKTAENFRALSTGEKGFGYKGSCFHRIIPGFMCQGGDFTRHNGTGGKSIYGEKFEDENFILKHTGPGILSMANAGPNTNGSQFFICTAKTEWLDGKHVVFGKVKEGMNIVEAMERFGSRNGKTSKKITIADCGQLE
protocol.notes: Ras-Raf (BRAF RBD) disruption / FRET / MOA assay, KRAS Q61H
Format: biochemical
measurement.parameters: Ras-Raf disruption/FRET/MOA assay; class symbols; read-out: KRAS Q61H FRET data IC50
recorded.metric: IC50

Consider the worked cases shown below.
[[record]]
molecule = "C=CC(=O)N1CC[C@H](C(=O)N(C)[C@H](C(=O)N[C@H]2C[C@H]3CN(CCO3)c3ccc4c(c3)c(c(-c3cccnc3[C@H](C)OC)n4CC)CC(C)(C)COC(=O)[C@@H]3CCCN(N3)C2=O)C(C)C)C1 (atropisomer, axis not shown)"
recorded_metric = "IC50"
measurement = "> 10000 nM"

[[record]]
molecule = "C=CC(=O)N1CCOC2(CCN(C(=O)N(C)[C@H](C(=O)N[C@H]3Cc4nsc(n4)-c4ccc5c(c4)c(c(-c4cccnc4[C@H](C)OC)n5CC)CC(C)(C)COC(=O)[C@@H]4CCCN(N4)C3=O)C(C)C)CC2)C1 (atropisomer, axis not shown)"
recorded_metric = "IC50"
measurement = "10 to 100 nM"

[[record]]
molecule = "C=CC(=O)N1CC[C@H](C(=O)N(C)[C@H](C(=O)N[C@H]2Cc3cccc(c3)-c3ccc4c(c3)c(c(-c3cnn(C)c3CN(C)C)n4CC)CC(C)(C)COC(=O)[C@@H]3CCCN(N3)C2=O)C(C)C)C1 (relative stereo)"
recorded_metric = "IC50"
measurement = "> 10000 nM"

[[record]]
molecule = "CO[C@@H](C)c1ncccc1-c1c2c3cc(ccc3n1CC(F)(F)F)-c1csc(n1)C[C@H](NC(=O)[C@H](C(C)C)N(C)C(=O)N1C[C@@H]3OCCN(C(=O)/C=C/CF)[C@@H]3C1)C(=O)N1CCC[C@H](N1)C(=O)OCC(C)(C)C2 (atropisomer, axis not shown)"
recorded_metric = "IC50"
measurement = "100 to 1000 nM"

[[record]]
molecule = "C=CS(=O)(=O)N1CCC2(CCN([C@H](C(=O)N[C@H]3Cc4cc(O)cc(c4)-c4ccc5c(c4)c(c(-c4cccnc4[C@H](C)OC)n5CC)CC(C)(C)COC(=O)[C@@H]4CCCN(N4)C3=O)C(C)C)C2=O)CC1 (atropisomer, axis not shown)"
recorded_metric = "IC50"
measurement = "< 10 nM"


Per the reported KRAS Q61H (Homo sapiens (Human), UniProt P01116+P62937, Q61H) data, CO[C@@H](C)c1ncccc1-c1c2c3cc(ccc3n1CC(F)(F)F)-c1cc(CF)cc(c1)C[C@H](NC(=O)[C@@H](COC1CN(C(=O)C#CC(C)(C)N(C)C)C1)C(C)C)C(=O)N1CCC[C@H](N1)C(=O)OCC(C)(C)C2 (atropisomer, axis not shown) has IC50 of 1000 to 10000 nM

Reading of IC50 for C=CC(=O)N1CCO[C@H]2CN(C(=O)N(C)[C@H](C(=O)N[C@H]3Cc4nc(cs4)-c4ccc5c(c4)c(c(-c4cccnc4[C@H](C)OC)n5CC)CC(C)(C)COC(=O)[C@@H]4CCCN(N4)C3=O)C(C)C)C[C@@H]21 (atropisomer, axis not shown) with KRAS Q61H (Homo sapiens (Human), UniProt P01116+P62937, Q61H): 10 to 100 nM

Entry C=CC(=O)N1C[C@@H](C)N(C(=O)N(C)[C@H](C(=O)N[C@H]2Cc3nc(cs3)-c3ccc4c(c3)c(c(-c3cccnc3[C@H](C)OC)n4CC)CC(C)(C)COC(=O)[C@@H]3CCCN(N3)C2=O)C(C)C)[C@@H](C)C1 (atropisomer, axis not shown) ; assay system KRAS Q61H (Homo sapiens (Human), UniProt P01116+P62937, Q61H); IC50 recorded at 10 to 100 nM

// molecule C=CC(=O)N1CC[C@H](C(=O)N(C)[C@H](C(=O)N[C@H]2Cc3cc(O)cc(c3)-c3ccc4c(c3)c(c(-c3cncnc3)n4CC)CC(C)(C)COC(=O)[C@@H]3CCCN(N3)C2=O)C(C)C)C1 , assay KRAS Q61H (Homo sapiens (Human), UniProt P01116+P62937, Q61H), IC50 value: 1000 to 10000 nM

Item: CC#CC(=O)N1CCC(C(=O)N(C)[C@H](C(=O)N[C@H]2Cc3nc(cs3)-c3ccc4c(c3)c(c(-c3cccnc3[C@H](C)OC)n4CC)CC(C)(C)COC(=O)[C@@H]3CCCN(N3)C2=O)C(C)C)C1 (atropisomer, axis not shown) | System: KRAS Q61H (Homo sapiens (Human), UniProt P01116+P62937, Q61H) | IC50: 1000 to 10000 nM

IC50 of C=CC(=O)N1CC[C@H](C(=O)N(C)[C@H](C(=O)N[C@H]2Cc3cc(O)cc(c3)-c3ccc4c(c3)c(c(-c3c(C)cccc3C)n4CC)CC(C)(C)COC(=O)[C@@H]3CCCN(N3)C2=O)C(C)C)C1 , assay on KRAS Q61H (Homo sapiens (Human), UniProt P01116+P62937, Q61H), is 1000 to 10000 nM

IC50 for KRAS Q61H (Homo sapiens (Human), UniProt P01116+P62937, Q61H) with input C=CC(=O)N1CC[C@H](C(=O)N(C)[C@H](C(=O)N[C@H]2Cc3cc(CF)cc(c3)-c3ccc4c(c3)c(c(-c3cccnc3[C@H](C)OC)n4CC)CC(C)(C)COC(=O)[C@@H]3CCCN(N3)C2=O)C(C)C)C1 (atropisomer, axis not shown) [Example A505] equals 100 to 1000 nM

Considering CCn1c(-c2cccnc2[C@H](C)OC)c2c3cc(ccc31)-c1cc(F)cc(c1)C[C@H](NC(=O)[C@@H](COC1CN(C(=O)C#CC(C)(C)N(C)C)C1)C(C)C)C(=O)N1CCC[C@H](N1)C(=O)OCC(C)(C)C2 (atropisomer, axis not shown) , its IC50 with KRAS Q61H (Homo sapiens (Human), UniProt P01116+P62937, Q61H) was recorded as 1000 to 10000 nM

Record C=CC(=O)N(C)C[C@H]1CCN(C(=O)N(C)[C@H](C(=O)N[C@H]2Cc3nc(cs3)-c3ccc4c(c3)c(c(-c3cccnc3[C@H](C)OC)n4CC)CC(C)(C)COC(=O)[C@@H]3CCCN(N3)C2=O)C(C)C)C1 (atropisomer, axis not shown) has KRAS Q61H (Homo sapiens (Human), UniProt P01116+P62937, Q61H) IC50 equal to 10 to 100 nM

// molecule CCn1c(-c2cccnc2[C@H](C)OC)c2c3cc(ccc31)-c1cnc(o1)C[C@H](NC(=O)[C@H](C(C)C)N(C)C(=O)[C@H]1CCN(C(=O)C#CC(C)(C)N(C)C)C1)C(=O)N1CCC[C@H](N1)C(=O)OCC(C)(C)C2 (atropisomer, axis not shown) , assay KRAS Q61H (Homo sapiens (Human), UniProt P01116+P62937, Q61H), IC50 value: 1000 to 10000 nM
